Origin of the recorded values: patent US20080050375A1

biological target: T1, human TGF-beta 1 (R&D Systems, Cat # 240-B/CF) (human, UniProt P01137 279-390); test: Biacore SPR, calculated koff/kon
T1 construct: They match K95 and residues 58-61 of mature numbering; also called TGF-β1; mature TGF-β1
T1 sequence (P01137 279-390 limits assumed): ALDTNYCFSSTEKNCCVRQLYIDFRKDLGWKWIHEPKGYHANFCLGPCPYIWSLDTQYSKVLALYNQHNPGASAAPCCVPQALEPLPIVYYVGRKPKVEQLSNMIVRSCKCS
pKd: −log10 of the molar value.
result.type: pKd

Request: Using the record for mAb DM7 (antibody, IgG4, V domains shown) VH: QVQLVQSGAEVKKPGASVKVSCKASGYDFTDYNMHWVRQAPGQGLEWMGYIYPYDGETGYNQKFKSRVTMTTDTSTSTAYMELRSLRSDDTAVYYCARGYRWLYYWGQGTLVTVSS VL: DIQMTQSPSSLSASVGDRVTITCRASSSVSYMHWYQQKPGKAPKPLIYATSNLAKGVPSRFSGSGSGTDFTLTISSLQPEDFATYYCQQWDLNPPAFGQGTKLEIK , report its pKd.
Response: > 12.30
